assay: In vitro alpha-2 adrenergic receptor binding affinity was determined on calf frontal cortex membrane preparation; type: tissue-based, Bos taurus
Exercise: state measured log10 of Ki for each of the compounds provided.
All values: base-10 log of Ki in µM.

For the compound Cc1ccc2c3c1CCCN3CC(C1=NCCN1)O2 (configuration not stated) , report log10 of Ki.
-0.64

For the compound c1ccc(CN2CC(C3=NCCN3)Oc3ccccc32)cc1 (configuration not stated) , report log10 of Ki.
0.11

For the compound Cc1ccc2c(c1)N(C)CC(C1=NCCN1)O2 (configuration not stated) , report log10 of Ki.
-1.15

For the compound CN1CC(C2=NCCN2)Oc2cc3c(cc21)CCCC3 (configuration not stated) , report log10 of Ki.
-1.01

For the compound COc1cc(=O)n2c3c(ccc(C)c13)OC(C1=NCCN1)C2 (configuration not stated) , report log10 of Ki.
0.83

For the compound c1cc2c3c(c1)ccn3CC(C1=NCCN1)O2 (configuration not stated) , report log10 of Ki.
-0.44

For the compound COc1cc(=O)n2c3c(cccc13)OC(C1=NCCN1)C2 (configuration not stated) , report log10 of Ki.
1.11

For the compound CN1CC(C2=NCCN2)Oc2ccc(F)cc21 (stereo in doubt; 4h) , report log10 of Ki.
-0.98

For the compound c1cc2c3c(c1)OC(C1=NCCN1)CN3CCCC2 (configuration not stated) , report log10 of Ki.
0.33

For the compound c1cc2c3c(c1)OC(C1=NCCN1)CN3CC2 (configuration not stated) , report log10 of Ki.
-1.54

###

Exercise: state measured Variation for each of the compounds provided.
test system: Rattus norvegicus; experiment: Effect (25 mg/kg ip) on mean arterial blood pressure in anesthetized spontaneously hypertensive rats; format: functional
Give your result in % as a bare value.

For the compound CN1CC(C2=NCCN2)Oc2ccc(F)cc21 (single isomer, unassigned; (-)) , report Variation.
-31

For the compound CN1CC(C2=NCCN2)Oc2ccc(F)cc21 (stereo in doubt; (+)4h) , report Variation.
-28

For the compound c1ccc(CN2CC(C3=NCCN3)Oc3ccccc32)cc1 (configuration not stated) , report Variation.
-2

For the compound c1ccc2c(c1)NCC(C1=NCCN1)O2 (configuration not stated) , report Variation.
-9

For the compound CN1CC(C2=NCCN2)Oc2cc3c(cc21)CCCC3 (configuration not stated) , report Variation.
-9

For the compound Cc1cccc2c1N(C)CC(C1=NCCN1)O2 (configuration not stated) , report Variation.
23

For the compound c1cc2c3c(c1)OC(C1=NCCN1)CN3CCCC2 (configuration not stated) , report Variation.
11

For the compound CN1CC(C2=NCCN2)Oc2ccc(C(F)(F)F)cc21 (configuration not stated) , report Variation.
-18

For the compound CN1CC(C2=NCCN2)Oc2ccc(Cl)cc21 (configuration not stated) , report Variation.
-28

For the compound CN1CC(C2=NCCN2)Oc2cc3ccccc3cc21 (configuration not stated) , report Variation.
-9

For the compound c1cc2c3c(c1)ccn3CC(C1=NCCN1)O2 (configuration not stated) , report Variation.
-14

For the compound Cc1ccc2c(c1)OC(C1=NCCN1)CN2C (configuration not stated) , report Variation.
-20

###

Exercise: state measured Ki for each of the compounds provided.
target: imidazoline I2 binding site (Oryctolagus cuniculus); assay: In vitro binding affinity determined against imidazoline receptor I-2 using rabbit kidney preparation
Give your result in nM as a bare value.

For the compound c1ccc(CN2CC(C3=NCCN3)Oc3ccccc32)cc1 (stereo not drawn) , report Ki.
1600

For the compound CCCN1CC(C2=NCCN2)Oc2ccccc21 (stereo not drawn) , report Ki.
160

For the compound Cc1ccc2c(c1)N(C)CC(C1=NCCN1)O2 (stereo not drawn) , report Ki.
1.99

###

assay: In vitro alpha-1 adrenergic receptor binding affinity was determined on calf frontal cortex membrane preparation; assay type: tissue-based, Bos taurus
Exercise: state measured Ki for each of the molecules provided.

For the molecule CN1CC(C2=NCCN2)Oc2cc3c(cc21)CCCC3 (configuration not stated) , report Ki.
> 10 µM

For the molecule Cc1cccc2c1OC(C1=NCCN1)CN2C (configuration not stated) , report Ki.
> 1 µM

For the molecule CN1CC(C)(C2=NCCN2)Oc2ccccc21 (configuration not stated) , report Ki.
> 1 µM

For the molecule Cc1cc(C)c2c(c1)N(C)CC(C1=NCCN1)O2 (configuration not stated) , report Ki.
> 1 µM

For the molecule c1cc2c3c(c1)OC(C1=NCCN1)CN3CCCC2 (configuration not stated) , report Ki.
4.6 µM

For the molecule COC(=O)c1ccc2c(c1)N(C)CC(C1=NCCN1)O2 (configuration not stated) , report Ki.
> 10 µM

For the molecule Cc1ccc2c(c1)OC(C1=NCCN1)CN2C (configuration not stated) , report Ki.
1 µM

For the molecule c1ccc2c(c1)NCC(C1=NCCN1)O2 (configuration not stated) , report Ki.
> 10 µM

For the molecule Cc1cc2c(cc1C)N(C)CC(C1=NCCN1)O2 (configuration not stated) , report Ki.
5.66 µM

For the molecule COc1cc(=O)n2c3c(cccc13)OC(C1=NCCN1)C2 (configuration not stated) , report Ki.
> 10 µM

For the molecule CN1CC(C2=NCCN2)Oc2ccc(F)cc21 (single isomer, unassigned; (-)) , report Ki.
> 1 µM

For the molecule CN1CC(C2=NCCN2)Oc2c1ccc1ccccc21 (configuration not stated) , report Ki.
> 10 µM

###

Molecular target: Alpha-1A adrenergic receptor (Bos taurus)
Sequence (P18130 whole entry): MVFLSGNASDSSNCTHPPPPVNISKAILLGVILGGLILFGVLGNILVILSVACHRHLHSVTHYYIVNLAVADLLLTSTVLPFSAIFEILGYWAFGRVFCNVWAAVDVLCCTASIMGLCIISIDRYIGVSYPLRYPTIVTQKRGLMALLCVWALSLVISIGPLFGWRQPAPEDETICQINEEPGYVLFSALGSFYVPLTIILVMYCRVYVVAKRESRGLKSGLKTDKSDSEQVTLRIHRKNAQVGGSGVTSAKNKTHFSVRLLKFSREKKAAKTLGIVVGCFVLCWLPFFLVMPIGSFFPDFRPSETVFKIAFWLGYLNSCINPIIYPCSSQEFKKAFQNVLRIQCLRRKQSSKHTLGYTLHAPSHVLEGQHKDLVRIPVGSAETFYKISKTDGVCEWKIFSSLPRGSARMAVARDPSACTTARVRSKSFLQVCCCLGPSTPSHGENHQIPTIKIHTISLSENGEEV
recorded_endpoint: pKi
Kindly note that pKi refers to -log10 of the concentration in mol/L and answer with the value alone.

For the compound CN1CC(C2=NCCN2)Oc2ccccc21 (stereo unspecified) , report pKi.
5.96

###

Exercise: state measured pKi for each of the compounds provided.
experiment: In vitro alpha-1 adrenergic receptor binding affinity was determined on calf frontal cortex membrane preparation; assay type: tissue-based, Bos taurus
pKi: −log10 of the molar value.

For the compound CN1CC(C2=NCCN2)Oc2ccc(Cl)cc21 (stereo not drawn) , report pKi.
5.84

For the compound CN1CC(C2=NCCN2)Oc2ccc(CO)cc21 (stereo not drawn) , report pKi.
< 5.00

For the compound c1cc2c3c(c1)OC(C1=NCCN1)CN3CC2 (stereo not drawn) , report pKi.
< 5.00

For the compound CCCN1CC(C2=NCCN2)Oc2ccccc21 (stereo not drawn) , report pKi.
< 5.00

For the compound CN1CC(C2=NCCN2)Oc2ccc(F)cc21 (stereo in doubt; 4h) , report pKi.
5.23

For the compound CCCC1(C2=NCCN2)CN(C)c2ccccc2O1 (stereo not drawn) , report pKi.
< 6.00

For the compound CN1CC(C2=NCCN2)Oc2ccc(F)cc21 (stereo in doubt; (+)4h) , report pKi.
5.60

For the compound c1ccc(CN2CC(C3=NCCN3)Oc3ccccc32)cc1 (stereo not drawn) , report pKi.
5.46

For the compound c1cc2c3c(c1)OC(C1=NCCN1)CN3CCC2 (stereo not drawn) , report pKi.
6.15

For the compound Cc1ccc2c(c1)N(C)CC(C1=NCCN1)O2 (stereo not drawn) , report pKi.
< 6.00

For the compound COc1ccc2c(c1)N(C)CC(C1=NCCN1)O2 (stereo not drawn) , report pKi.
< 5.00

For the compound COc1cc(=O)n2c3c(ccc(C)c13)OC(C1=NCCN1)C2 (stereo not drawn) , report pKi.
5.03

For the compound c1cc2c3c(c1)ccn3CC(C1=NCCN1)O2 (stereo not drawn) , report pKi.
< 6.00

For the compound CCOCc1ccc2c(c1)N(C)CC(C1=NCCN1)O2 (stereo not drawn) , report pKi.
< 5.00

For the compound CN1CC(C2=NCCN2)Oc2ccc(C(F)(F)F)cc21 (stereo not drawn) , report pKi.
< 5.00

For the compound CN1CC(C2=NCCN2)Oc2cc3ccccc3cc21 (stereo not drawn) , report pKi.
< 5.00

For the compound Cc1cccc2c1N(C)CC(C1=NCCN1)O2 (stereo not drawn) , report pKi.
5.32

For the compound Cc1ccc2c3c1CCCN3CC(C1=NCCN1)O2 (stereo not drawn) , report pKi.
< 5.00

Sourced from ChEMBL document CHEMBL1136789
